Ref: patent US20250320184A1

subjectOfTest: SARM1 (50-724) (Homo sapiens)
Sequence (Q6SZW1 50-724): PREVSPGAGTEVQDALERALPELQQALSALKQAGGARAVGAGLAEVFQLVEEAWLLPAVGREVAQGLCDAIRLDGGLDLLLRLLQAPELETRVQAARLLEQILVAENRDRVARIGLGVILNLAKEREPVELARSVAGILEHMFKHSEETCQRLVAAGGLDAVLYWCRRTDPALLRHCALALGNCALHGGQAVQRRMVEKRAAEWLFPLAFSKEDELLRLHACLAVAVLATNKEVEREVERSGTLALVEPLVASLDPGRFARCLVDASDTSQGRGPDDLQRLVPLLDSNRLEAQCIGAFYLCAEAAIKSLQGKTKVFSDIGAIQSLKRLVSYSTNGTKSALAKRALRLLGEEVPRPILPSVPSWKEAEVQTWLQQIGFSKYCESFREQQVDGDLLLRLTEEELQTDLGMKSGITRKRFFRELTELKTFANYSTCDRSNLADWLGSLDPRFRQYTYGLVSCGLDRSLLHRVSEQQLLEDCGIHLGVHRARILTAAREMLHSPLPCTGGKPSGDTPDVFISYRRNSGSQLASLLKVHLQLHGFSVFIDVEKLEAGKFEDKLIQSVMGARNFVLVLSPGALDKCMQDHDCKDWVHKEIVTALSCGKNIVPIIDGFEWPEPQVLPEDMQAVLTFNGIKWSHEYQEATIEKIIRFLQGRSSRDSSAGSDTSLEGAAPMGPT
protocolNotes: SARM1 (50-724) enzymatic assay
conditionSet: SARM1 inhibitory activity; purified SARM1 (50-724) 2 nM, 200 μM NMN activator, 100 μM NAD+ substrate, LC-MS/MS
pIC50: −log10 of the molar value.
Consider the following compounds; for each one, report its pIC50.

API: value(readout=pIC50, system=SARM1 (50-724) (Homo sapiens)) for record CC(Nc1ccc2c(c1)C(=O)NCC2)c1cccc(Cl)c1Cl (single isomer, unassigned) > 7.00

Request: CC(Nc1ccc2cc[nH]c(=O)c2c1)c1nccc(Cl)c1Cl (racemic) > 7.00

====

subjectOfTest: SARM1 (50-724) (Homo sapiens)
protocolNotes: biochemical
attributeMeasured: IC50

I have this compound here, CC(Nc1ccc2c(C(F)(F)F)n(CC(N)=O)nc2c1)c1nc(Cl)c(Cl)s1 (single isomer, unassigned) [Compound 368] , and I need its recorded IC50. > 1000 nM

Now the same for CC1(C)CC(C#N)c2cc(NS(=O)(=O)c3cccc(Cl)c3Cl)ccc21 (racemic) < 100 nM

And the next one, CCCC(Nc1ccc2c(c1)C(=O)NCC2)c1cc(C)cc(F)c1 (racemic) ? 500 to 1000 nM

Follow-up entry: "Cc1cc(S(=O)(=O)Nc2ccc3c(c2)C(=O)NCC3)c(F)cc1F" 100 to 500 nM

Likewise for O=C1NCCc2ccc(NS(=O)(=O)N3CCCC4CCCCC43)cc21 (mixture of isomers) ? > 1000 nM

Check CC(Nc1ccc2c(c1)C(=O)NCC2)c1ccc(Cl)c(F)c1 (racemic) too. > 1000 nM

// query: "Cc1c(Br)cccc1S(=O)(=O)Nc1ccc2c(c1)C(=O)NCCC2" < 100 nM

# repeat for Cc1c2ccc(NC(C)c3nc(Cl)c(Cl)s3)cc2nn1C1CC(O)C1 (mixture of isomers) < 100 nM

One more compound: Cc1n[nH]c(=O)c2cc(NC(CO)c3c(Cl)ccc(F)c3Cl)ccc12 (racemic) < 100 nM

Note, next up: CC(Nc1ccc2ccn(CC3CC3)c(=O)c2c1)c1cccc(Cl)c1Cl (racemic) 100 to 500 nM

Queued: "Cc1c(Br)cccc1S(=O)(=O)Nc1ccc2c(c1)C(=O)NCC2" < 100 nM

And what about the compound "Cc1c(F)cccc1S(=O)(=O)Nc1ccc2cn[nH]c2c1" ? 500 to 1000 nM

Ok, now COC(=O)C1Cc2ccc(NS(=O)(=O)c3cccc(Cl)c3Cl)cc2C(=O)N1 (racemic) 100 to 500 nM

Subsequent entry: "O=C1NCCc2ccc(NS(=O)(=O)c3cc(F)c(F)cc3F)cc21" > 1000 nM

Next compound up: [2H]C(C)(Nc1ccc2c(C)n(CC(N)=O)nc2c1)c1nc(Cl)c(Cl)s1 (racemic) [Compound 376] < 100 nM

Next: "Cc1ccc(Cl)c(S(=O)(=O)Nc2ccc3cc[nH]c(=O)c3c2)c1Cl" < 100 nM

Likewise for CC(Nc1ccc2ccnn2c1)c1cccc(Cl)c1Cl (racemic) ? 500 to 1000 nM

Continue with Cc1c2ccc(NC(C)c3sc(Cl)nc3Cl)cc2nn1CC(N)=O (single isomer, unassigned) [Compound 347A] > 1000 nM

Cool, now "CC1(C)C(=O)N(CCCO)c2cc(NS(=O)(=O)c3cccc(Cl)c3Cl)ccc21" < 100 nM

Now the compound CC(Nc1ccc2cc[nH]c(=O)c2c1)c1nn(C)c(C(F)F)c1Cl (racemic) < 100 nM

Repeat with "O=C1NCCc2ccc(NS(=O)(=O)c3cc(F)cc(F)c3F)cc21" > 1000 nM

Same thing, different compound: "O=S(=O)(Nc1ccc2cc[nH]c2c1)c1cccc(Cl)c1Cl" < 100 nM

Quick one: Cc1nn(CC(N)=O)c2cc(NC(C)c3nc(Cl)c(Cl)s3)cc(F)c12 (racemic) < 100 nM

Also need Cc1sc(C(C)Nc2ccc3c(C)n(CC(N)=O)nc3c2)nc1Cl (racemic) [Compound 379] , thanks. < 100 nM

// next record CC(Nc1ccc2c(c1)c(C(=O)NCCO)nn2C)c1c(Cl)ccc(F)c1Cl (racemic) < 100 nM

Thanks! And CCC(Nc1ccc2c(OC)n[nH]c(=O)c2c1)c1nc(Cl)c(Cl)s1 (racemic) ? < 100 nM

Same lookup for "O=C1Nc2cc(NS(=O)(=O)c3cccc(Cl)c3Cl)ccc2CO1" , please. < 100 nM

Cc1c(Cl)c(C(C)Nc2ccc3cc[nH]c(=O)c3c2)nn1C (single isomer, unassigned) [Compound 226A] , same question. > 1000 nM

Record: CC(Nc1cc(F)c2ncn(-c3ncnn3C)c(=O)c2c1)c1nc(Cl)c(Cl)s1 (racemic) < 100 nM

Please answer likewise for CC(Nc1ccc2c(c1)N(C(N)=O)CC2(C)C)c1nc(Cl)c(Cl)s1 (racemic) < 100 nM

# repeat for "N#CCn1ccc2ccc(NS(=O)(=O)c3cccc(Cl)c3Cl)cc2c1=O" 100 to 500 nM

Thanks! And C[C@@H](Nc1ccc2cc[nH]c(=O)c2c1)c1nccc(Cl)c1Cl (single isomer, unassigned) [Example 194A] ? < 100 nM

====

subjectOfTest: SARM1 (50-724) (Homo sapiens, UniProt Q6SZW1)
protocolNotes: biochemical
pIC50: −log10 of the molar value.
For each record, write down the corresponding pIC50.

Which pIC50 value belongs to CCC(Nc1ccc2c(c1)C(=O)NCC2)c1nccc(Cl)c1Cl (racemic) [Example 154] ? 6.30 to 7.00

And for Cc1c2ccc(NC(C)c3nc(Cl)c(Cl)s3)cc2nn1CC(N)=O (single isomer, unassigned) [Compound 312B] ? < 6.00

What do you have for Cc1sc(C(C)Nc2ccc3c(C)n(CC(N)=O)nc3c2)nc1Cl (single isomer, unassigned) [Compound 380] ? > 7.00

What do you have for Cc1cc(F)cc(C(C)Nc2ccc3c(c2)C(=O)NCC3)c1 (racemic) [Example 93] ? 6.00 to 6.30

Can you handle O=C1NCCc2ccc(NS(=O)(=O)c3ccccc3Cl)cc21 [Example 6A] next? < 6.00

Proceed to N#Cc1c[nH]c(=O)c2cc(NS(=O)(=O)c3cccc(Cl)c3Cl)ccc12 [Compound 63] 6.30 to 7.00

Please answer likewise for Cc1c(F)cccc1S(=O)(=O)Nc1ccc2cc[nH]c(=O)c2c1 [Compound 15] > 7.00

Thanks! And Cc1c(F)cccc1S(=O)(=O)Nc1ccc2scnc2c1 [Compound 32] ? 6.30 to 7.00

Okay, and CC(Nc1ccc2cc[nH]c(=O)c2c1)c1cnc(Cl)c(Cl)c1 (racemic) [Example 107] ? 6.30 to 7.00

Another: CC(Nc1ccc2nc[nH]c(=O)c2n1)c1c(Cl)ccc(F)c1Cl (single isomer, unassigned) [Compound 382] > 7.00

Now give it for CC(Nc1cc(F)c2ncn(C3CC(O)C3)c(=O)c2c1)c1cncc(Cl)c1Cl (mixture of isomers) [Compound 348] too. > 7.00

Note, next up: CC(Nc1ccc2cc[nH]c(=O)c2c1)c1sc(Cl)nc1Cl (racemic) [Example 130] 6.30 to 7.00

Likewise for O=C1NCCc2ccc(NS(=O)(=O)N3CC4CCCC4C3)cc21 (stereo not drawn) [Compound 49] ? < 6.00

Thanks! And O=C1NCCc2cc(Cl)c(NS(=O)(=O)c3cccc(Cl)c3Cl)cc21 [Compound 47] ? < 6.00

Also need Cc1cc(F)ccc1S(=O)(=O)Nc1ccc2c(c1)C(=O)NCC2 [Example 4A] , thanks. < 6.00

Thanks! And CC1CNC(=O)c2cc(NS(=O)(=O)c3cccc(Cl)c3Cl)ccc21 (stereo not drawn) [Compound 189] ? > 7.00

Let us now turn to CCC(Nc1ccc2cc[nH]c(=O)c2c1)c1cccc(Cl)c1 (racemic) [Example 126] 6.30 to 7.00

How about O=C1NCCc2ccc(NS(=O)(=O)c3ccc(F)cc3F)cc21 [Example 14A] ? < 6.00

Can you check Cc1c(Cl)cc(F)cc1S(=O)(=O)Nc1ccc2cc[nH]c(=O)c2c1 [Compound 45] next? > 7.00

Can you handle CC(Nc1ccc2cc[nH]c(=O)c2c1)c1ccnc(Cl)c1Cl (racemic) [Example 131] next? 6.30 to 7.00

For CC(Nc1ccc2cc[nH]c(=O)c2c1)c1cc(F)cc(F)c1 (racemic) [Example 114] then? 6.30 to 7.00

Queued: Cc1c(F)cccc1S(=O)(=O)Nc1cccc(-c2ccc[nH]c2=O)c1 [Example 162] < 6.00

And the next one, Cc1c(Cl)cccc1S(=O)(=O)Nc1ccc2c(c1)C(=O)NCC2 [Example 5A] ? > 7.00

Could you do the same for Cc1cc(F)cc(C(Nc2ccc3c(c2)C(=O)NCC3)C(C)C)c1 (racemic) [Example 144] , please? 6.30 to 7.00

Next molecule up: Cc1nn(CCO)c2cc(NC(C)c3nc(Cl)c(Cl)s3)ccc12 (racemic) [Compound 301] > 7.00

Queued: Cc1cc(F)cc(C(Nc2ccc3c(c2)C(=O)NCC3)c2cccnc2)c1 (stereo not drawn) [Compound 178] < 6.00

O=S(=O)(Nc1cccc(-c2cnccn2)c1)c1cccc(Cl)c1Cl [Compound 83] ? 6.30 to 7.00

Next molecule: C[C@H](Nc1ccc2c(c1)NC(=O)C2(C)C)c1nc(Cl)c(Cl)s1 (single isomer, unassigned) [Compound 234A] < 6.00

Record: CC[C@H](C(N)=O)c1ccc(N[C@H](C)c2nc(Cl)c(Cl)s2)cc1 (single isomer, unassigned) [Compound 302A] < 6.00

Request: CC(Nc1ccc2cc[nH]c(=O)c2c1)c1cccc(Cl)c1 (racemic) [Example 108] 6.30 to 7.00

What do we get for CC(Nc1ccc2c(c1)NC(=O)CCC2)c1nc(Cl)c(Cl)s1 (racemic) [Compound 229] ? 6.30 to 7.00

Also CC1(C)C(=O)N(CC(N)=O)c2cc(NS(=O)(=O)c3cccc(Cl)c3Cl)ccc21 [Compound 255] , if possible. > 7.00

Can you handle CC(Nc1ccc2c(C(F)(F)F)n(CC(N)=O)nc2c1)c1nc(Cl)c(Cl)s1 (single isomer, unassigned) [Compound 367] next? > 7.00
